Tested on: T47D
Assay Name: Microculture tetrazolium assay
Assay type: cell-based
Protocol Conditions: Homo sapiens, read-out: IC50
Parameter IC50: see the listing below.
Measured Metric: IC50 (µM)

C=CC[C@@H]1Cc2c(O)c3c(c(O)c2[C@@H](O[C@H]2C[C@H](NC(=O)C(F)(F)F)[C@H](O)[C@H](C)O2)O1)C(=O)c1ccccc1C3=O [BCH-2108] = 11.9
CCOC(=O)C1CC2=C(CO1)C(=O)c1cc3ccccc3c(OC(C)=O)c1C2=O (stereo not drawn) [BCH-659] = 3.83
C[C@@H]1O[C@@H](O[C@H]2O[C@H](C3(CO)OCCCO3)CC3=C2C(=O)c2cc4ccccc4c(O)c2C3=O)C[C@H](N)[C@@H]1O [BCH-1153] = 4.65
CC(=O)O[C@@H]1[C@H](C)O[C@@H](O[C@@H]2O[C@@H](C(C)=O)CC3=C2C(=O)c2cc4ccccc4c(O)c2C3=O)C[C@@H]1OC(C)=O [BCH-1166] = 31.4
CCC1COC(OC2CC(N)C(O)C(C)O2)c2c(O)c3c(c(O)c21)C(=O)c1ccccc1C3=O (stereo not drawn) [BCH-2086] = 1.4
COC(=O)[C@@H]1CC2=C(C(=O)c3c(cc4ccccc4c3O)C2=O)[C@@H](O)O1 (relative stereo) [BCH-703] = 16.4

---

System: SKVLB
Assay Name: Microculture tetrazolium assay
Assay type: cell-based
Protocol Conditions: IC50 ratio SKVLB/SKOV3
Where a name gives a salt, the structure may show the parent alone.
This section presents molecules with their documented VLB/OV3 values.
Measured Metric: VLB/OV3

C[C@@H]1O[C@@H](O[C@@H]2O[C@@H](C(=O)COC(=O)C(C)(C)C)CC3=C2C(=O)c2cc4ccccc4c(O)c2C3=O)C[C@H](NC(=O)C(F)(F)F)[C@@H]1O [BCH-1137] = 1.03
CC(=O)Oc1c2c(c(O)c3ccccc13)C(=O)C1=C(C2=O)C(O)OC(C(C)=O)C1 (stereo not shown) [BCH-704] = 0.84
COCOCC(=O)C1CC2=C(CO1)C(=O)c1c(c(OC(C)=O)c3ccccc3c1OC(C)=O)C2=O (stereo not shown) [BCH-695] = 0.49
C[C@@H]1O[C@@H](OC2OC(CC(=O)C3CC3)CC3=C2C(=O)c2cc4ccccc4c(O)c2C3=O)C[C@H](NC(=O)C(F)(F)F)C1O (mixture of isomers) [BCH-2133] = 0.23
CC(=O)[C@@H]1Cc2c(O)c3c(c(O)c2[C@@H](O[C@@H]2O[C@@H](C)[C@@H](O)[C@@H](N)C2I)O1)C(=O)c1ccccc1C3=O (stereo partly shown) [BCH-2066, hydrochloride] = 6.32
CCCCC[C@H]1Cc2c(O)c3c(c(O)c2[C@H](O[C@H]2C[C@H](N)[C@H](O)[C@H](C)O2)O1)C(=O)c1ccccc1C3=O [BCH-2088] = 1.90
C[C@@H]1O[C@@H](O[C@H]2O[C@H](c3ccccc3)CC3=C2C(=O)c2cc4ccccc4c(O)c2C3=O)C[C@H](NC(=O)C(F)(F)F)[C@@H]1O [BCH-2010] = 2.24
CCOC(=O)C1CC2=C(C(=O)c3c(c(O)c4ccccc4c3OC)C2=O)C(O[C@H]2C[C@H](NC(=O)C(F)(F)F)[C@H](O)[C@H](C)O2)O1 (mixture of isomers) [BCH-689] = 1.06
CC(=O)OCC1(C2CC3=C(C(=O)c4c(cc5ccccc5c4OC(C)=O)C3=O)C(O[C@H]3C[C@H](NC(=O)C(F)(F)F)[C@H](O)[C@H](C)O3)O2)OCCCO1 (stereo partly shown) [BCH-1179] = 1.58
C=C[C@H]1CC2=C(C(=O)c3cc4ccccc4c(O)c3C2=O)[C@H](O[C@H]2C[C@H](NC(=O)C(F)(F)F)[C@H](O)[C@H](C)O2)O1 [BCH-1155] = 1.12
CC(=O)C1CC2=C(C(=O)c3cc4ccccc4c(O)c3C2=O)C(O[C@H]2C[C@H](NC(=O)C(F)(F)F)[C@H](OS(C)(=O)=O)[C@H](C)O2)O1 (stereo partly shown) [BCH-2094] = 2.55
CCN(CC)C(=O)[C@H]1CC2=C(C(=O)c3cc4ccccc4c(O)c3C2=O)[C@H](O[C@H]2C[C@H](NC(=O)C(F)(F)F)[C@H](O)[C@H](C)O2)O1 [BCH-1653] = 1.85
C[C@@H]1O[C@@H](O[C@H]2O[C@H](C(C)(F)F)CC3=C2C(=O)c2cc4ccccc4c(O)c2C3=O)C[C@H](NC(=O)C(F)(F)F)[C@@H]1O [BCH-1676] = 1.63
COC(=O)[C@@H]1CC2=C(C(=O)c3c(cc4ccccc4c3O)C2=O)[C@@H](O[C@H]2C[C@H](NC(=O)C(F)(F)F)[C@H](O)[C@H](C)O2)O1 [BCH-691] = 1.11
CC(=O)C1CC2=C(C(=O)c3cc4ccccc4c(O)c3C2=O)C(OC[C@@H](O)CO)S1 (stereo partly shown) [BCH-1670] = 1.24
CC[C@H]1CC2=C(C(=O)c3cc4ccccc4c(O)c3C2=O)[C@H](O[C@H]2C[C@H](N)[C@H](O)[C@H](C)O2)O1 [BCH-1610, hydrochloride] = 3.30

---

Tested on: B16
Assay Name: Soft agar colony formation disk diffusion assay
Format: cell-based, murine
Protocol Conditions: 10 μg/DISK
Excerpt: A more elaborate version of this fundamental assay, the soft agar colony formation disk diffusion assay was used. This assay defines the relative activity of one particular drug versus a tumoral cell line type. The effect of the test drug against tumoral cells could be measured by its inhibitory capacity against colony formation after the delivery of the compound, in different concentrations on an filter disk(4). […]
Measured Metric: zone of inhibition (Zone Units)

COCOCC(=O)C1CC2=C(CO1)C(=O)c1c(cc3ccccc3c1O)C2=O (centres unmarked) = 0
COC(=O)[C@@H]1CC2=C(C(=O)c3c(c(OC)c4ccccc4c3O)C2=O)[C@@H](O[C@H]2C[C@H](NC(=O)C(F)(F)F)[C@H](O)[C@H](C)O2)O1 (mixture of isomers) = 91.5
COC(=O)[C@@H]1CC2=C(C(=O)c3c(cc4ccccc4c3O)C2=O)[C@@H](O[C@H]2C[C@H](NC(=O)C(F)(F)F)[C@H](O)[C@H](C)O2)O1 = 114.0
CCOC(=O)C1CC2=C(CO1)C(=O)c1c(cc3ccccc3c1O)C2=O (centres unmarked) = 0
C=CC1CC2=C(C(=O)c3cc4ccccc4c(O)c3C2=O)C(OC)O1 (centres unmarked) = 0

---

System: T47D
Assay Name: Microculture tetrazolium assay
Assay type: cell-based
Protocol Conditions: Homo sapiens, read-out: IC50
pIC50: −log10 of the molar value.
Item-by-item account of pIC50
Measured Metric: pIC50

CC(=O)[C@@H]1CC2=C(C(=O)c3cc4ccccc4c(O)c3C2=O)[C@@H](O[C@H]2C[C@H](NC(=O)C(F)(F)F)[C@H](OS(C)(=O)=O)[C@H](C)O2)O1 = 4.80
CC[C@@H]1CC2=C(C(=O)c3cc4ccccc4c(O)c3C2=O)[C@@H](O[C@H]2C[C@H](NC(=O)C(F)(F)F)[C@H](O)[C@H](C)O2)O1 = 5.88
CC(=O)C1CC2=C(C(=O)c3cc4ccccc4c(O)c3C2=O)C(O[C@H]2C[C@H](NC(=O)C(F)(F)F)[C@H](O)[C@H](C)O2)S1 (some centres unmarked) = 5.51

---

Tested on: T47D
Assay Name: Microculture tetrazolium assay
Type: cell-based
Protocol Conditions: Homo sapiens, read-out: IC50
pIC50: −log10 of the molar value.
Label scheme, based on pIC50: b0 = under 5, b1 = from 5 up to 6, b2 = 6 and over

CCOC(=O)C1Cc2c(c(OC)c3c(c2OC)C(=O)c2ccccc2C3=O)CS1 (centres unmarked) [BCH-717] = b0
COCOCC(=O)C1CC2=C(CO1)C(=O)c1c(c(OC(C)=O)c3ccccc3c1OC(C)=O)C2=O (centres unmarked) [BCH-695] = b0
CC[C@@H]1CC2=C(C(=O)c3cc4ccccc4c(O)c3C2=O)[C@@H](O[C@H]2C[C@H](O)[C@H](O)[C@H](C)O2)O1 [BCH-1630] = b0
C=COC(=O)NCCCO[C@@H]1O[C@@H](C(C)=O)CC2=C1C(=O)c1cc3ccccc3c(O)c1C2=O (relative stereo) [BCH-2036] = b1
C[C@@H]1O[C@@H](O[C@H]2O[C@H](COc3ccccc3)Cc3c(O)c4c(c(O)c32)C(=O)c2ccccc2C4=O)C[C@H](N)[C@@H]1O (mixture of isomers) [BCH-2058] = b2
C[C@@H]1O[C@@H](O[C@@H]2O[C@@H](C3(CO)OCCCO3)CC3=C2C(=O)c2cc4ccccc4c(O)c2C3=O)C[C@H](N)[C@@H]1O [BCH-1154] = b0

Numbers sourced from patent US5593970A.
